The origin of these recorded values is patent US9133148B2.

Biological target: Human MAGL (Homo sapiens (Human), UniProt Q99685)
Sequence (Q99685 whole entry): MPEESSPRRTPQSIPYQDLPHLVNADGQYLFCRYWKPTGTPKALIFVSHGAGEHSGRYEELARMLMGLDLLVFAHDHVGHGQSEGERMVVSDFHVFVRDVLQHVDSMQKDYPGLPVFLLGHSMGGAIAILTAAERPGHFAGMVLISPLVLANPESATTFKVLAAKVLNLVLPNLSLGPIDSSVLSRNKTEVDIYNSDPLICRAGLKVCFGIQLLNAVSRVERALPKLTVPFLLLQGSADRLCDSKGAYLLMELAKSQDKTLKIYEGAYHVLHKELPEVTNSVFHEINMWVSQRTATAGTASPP
Experiment: Competitive ABPP with recombinant human MAGL expressed in HEK293T cells
Type: biochemical
Conditions: hMAGL in HEK293T cell lysates
pIC50: −log10 of the molar value.
Consider the following molecules; for each one, report its pIC50.

// lookup pIC50 | system=Human MAGL (Homo sapiens (Human), UniProt Q99685) | key= O=C(OC(C(F)(F)F)C(F)(F)F)N1CCC(=C(c2ccc3c(c2)OCO3)c2ccc3c(c2)OCO3)CC1 > 7.00

Test system Human MAGL (Homo sapiens (Human), UniProt Q99685); read-out pIC50; what value for O=C(OC(C(F)(F)F)C(F)(F)F)N1CCN(Cc2ccc(-c3ccccc3)cc2)CC1 ? > 7.00

What measured pIC50 is associated with O=C(OC(C(F)(F)F)C(F)(F)F)N1CCC(C(c2ccc3c(c2)OCO3)c2ccc3c(c2)OCO3)CC1 on Human MAGL (Homo sapiens (Human), UniProt Q99685)? > 7.00

# get_value(readout= pIC50, system= Human MAGL (Homo sapiens (Human), UniProt Q99685)) for CN(Cc1ccc2c(c1)OCO2)C(=O)OC(C(F)(F)F)C(F)(F)F 6.00 to 7.00

# returns recorded pIC50 (system: Human MAGL (Homo sapiens (Human), UniProt Q99685)) for COc1ccc(N2CCN(C(=O)OC(C(F)(F)F)C(F)(F)F)CC2)cc1 6.00 to 7.00

Record O=C(OC(C(F)(F)F)C(F)(F)F)N1CCN(C(c2ccc3c(c2)OCO3)c2ccc3c(c2)OCO3)CC1 : what is its pIC50 with Human MAGL (Homo sapiens (Human), UniProt Q99685)? > 7.00

Record lookup: for Human MAGL (Homo sapiens (Human), UniProt Q99685), what pIC50 belongs to CC(C)c1cc(C(C)C)c(S(=O)(=O)N2CCN(C(=O)OC(C(F)(F)F)C(F)(F)F)CC2)c(C(C)C)c1 ? < 6.00

Lookup: pIC50 / Human MAGL (Homo sapiens (Human), UniProt Q99685) / Cc1ccccc1S(=O)(=O)N1CCN(C(=O)OC(C(F)(F)F)C(F)(F)F)CC1 6.00 to 7.00

Query pIC50 on Human MAGL (Homo sapiens (Human), UniProt Q99685) for CC(=O)Nc1ccc(S(=O)(=O)N2CCN(C(=O)OC(C(F)(F)F)C(F)(F)F)CC2)cc1 < 6.00

// map Cc1cc(N2CCN(C(=O)OC(C(F)(F)F)C(F)(F)F)CC2)c2ccccc2n1 to recorded pIC50 (system: Human MAGL (Homo sapiens (Human), UniProt Q99685)) > 7.00

# value lookup — system Human MAGL (Homo sapiens (Human), UniProt Q99685), readout pIC50, item O=C(OC(C(F)(F)F)C(F)(F)F)N1CCN(C(c2ccc3c(c2)CCO3)c2ccc3c(c2)CCO3)CC1 > 7.00

Item: O=C(OC(C(F)(F)F)C(F)(F)F)N1CCN(S(=O)(=O)c2ccc3ccccc3c2)CC1 Test system: Human MAGL (Homo sapiens (Human), UniProt Q99685) Read-out: pIC50 Value: ? < 6.00

So what pIC50 did O=C(OC(C(F)(F)F)C(F)(F)F)N1CCN(Cc2cccc(Oc3ccccc3)c2)CC1 get with Human MAGL (Homo sapiens (Human), UniProt Q99685)? > 7.00

Lab note: need pIC50 with Human MAGL (Homo sapiens (Human), UniProt Q99685) for entry Cc1nc(-c2cccc(CN(C)C(=O)OC(C(F)(F)F)C(F)(F)F)c2)no1 , please look it up. > 7.00

Record lookup: for Human MAGL (Homo sapiens (Human), UniProt Q99685), what pIC50 belongs to O=C(OC(C(F)(F)F)C(F)(F)F)N1CCC(C(O)(c2ccc3c(c2)OCO3)c2ccc3c(c2)OCO3)CC1 ? > 7.00

Which pIC50 is reported with Human MAGL (Homo sapiens (Human), UniProt Q99685) for this entry: Cc1ccc(S(=O)(=O)N2CCN(C(=O)OC(C(F)(F)F)C(F)(F)F)CC2)cc1 ? > 7.00

Form: Entry = O=C(OC(C(F)(F)F)C(F)(F)F)N1CCN(S(=O)(=O)c2cccc(C(F)(F)F)c2)CC1 | System = Human MAGL (Homo sapiens (Human), UniProt Q99685) | pIC50 = ____ 6.00 to 7.00

What reported pIC50 corresponds to N#Cc1ccc(S(=O)(=O)N2CCN(C(=O)OC(C(F)(F)F)C(F)(F)F)CC2)cc1 on Human MAGL (Homo sapiens (Human), UniProt Q99685)? 6.00 to 7.00
